The values you see were collected from PubChem BioAssay.

assay: reversal of MRP1-mediated doxorubicin resistance, pilot screen, H69AR cells, doxorubicin co-treatment (AID 601); details: H69AR cells, CellTiter-Glo, 72 h; compound alone cytotoxicity; at 10 µM
Give measured viability for each item. Keep answers brief.
Give the value, in units of %, as a plain number.

Problem: Recall and state the measured viability for CCSc1nc(O)c(C2OC(=O)c3c2ccc(OC)c3OC)c(=O)n1-c1ccccc1 (stereo not drawn) .
Result: 96.5

Problem: Please report the measured viability for `COc1ccc(C)cc1C(=O)CCC(=O)Nc1ccccc1N1CCOCC1`
Result: 1.36

Problem: Annotate the compound O=C1CC(C(=O)Nc2ccc(Br)cc2)C2(CCCC2)O1 (stereo not drawn) with its measured viability.
Result: 101

Problem: Return viability (reported value) for this compound: `Cc1nc(CNS(=O)(=O)c2cccc(F)c2)cs1`
Result: 91.4

Problem: Read the entry `COC(=O)c1[nH]c2ccc(C)cc2c1NC(=O)CN1CCCC(C)(C)C1` and write its reported viability.
Result: 39.1

Problem: // fetch viability given entry `Cc1cccc(-n2c(SCc3cc(=O)n4ccsc4n3)nc3ccccc32)c1`
Result: 78.5

Problem: Indicate its recorded viability; the compound in question is `O=C1CCCN1Cc1ncnn1-c1ccccc1`
Result: 112

Problem: Output viability of `O=C(CCn1c(=O)sc2ccccc21)NCc1ccc2c(c1)OCO2`
Result: 99.9

Problem: Supply recorded viability for `Cc1cc(C)n(CC(=O)O)n1` here.
Result: 88.4

Problem: Give me measured viability, please, for this compound: `Cc1ccccc1NC(=O)c1ccc(NC(=O)c2ccco2)cc1`
Result: 80.7

Problem: Answer with the recorded viability of `O=C(CNS(=O)(=O)c1ccccc1)NCc1ccccn1` only.
Result: 102

Problem: Assign viability to the following record: `NS(=O)(=O)c1cc2c(cc1Cl)NC=NS2(=O)=O`
Result: 100

Problem: Determine from records and report viability for `Cc1c(Cl)cccc1Nc1ccccc1C(=O)O`
Result: 111

Problem: Indicate the recorded viability value for this compound: `CC1CCN(c2nc3c(c(=O)n(C)c(=O)n3C)n2Cc2ccccc2)CC1`
Result: 88.1

Problem: Provide viability value for the following compound: `O=C(Cn1c(=O)oc2ccccc21)N1CCN(c2ccccc2)CC1`
Result: 88.8

Problem: Tell me its viability given `Cc1ccc2nsnc2c1S(=O)(=O)N1CCN(Cc2ccc3c(c2)OCO3)CC1` as the entry.
Result: 91

Problem: Specify viability for Cc1cccc(CC2CC(=O)N(c3ccccc3)C2=O)c1 (stereo not drawn) and stop.
Result: 102

Problem: Give the measured viability for `CCCCc1c(O)nc(SCC(=O)Nc2ccc3c(c2)CCC3)[nH]c1=O`
Result: 94.8

---

assay: SK-BR-3 cell growth inhibitors, pilot screen, 24 h, human (AID 572); settings: SK-BR-3 viability, CellTiter-Glo luminescence, at 10 µM, stronger effect = lower value;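 also: compound exposure lasted between 18 and 24 h rather than exactly 24 h; 100% = carrier-treated control wells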
So I've got a bunch of molecules here, and I need their viability values.
Value expressed in %; do not type the unit.

Problem: Given the molecule CCOc1ccccc1N1CCN(c2nc3ccccc3nc2C(C#N)C(=O)OC)CC1 (configuration not stated) , write its reported viability.
Result: 74

Problem: Find the measured viability of `O=C(CNC(=O)c1cc2ccccc2o1)NCc1cccs1` and report it.
Result: 122

Problem: Input `CCOC(=O)c1cnc(-n2nc(C)cc2C)nc1Nc1ccc(N(C)C)cc1` , output reported viability.
Result: 102

Problem: Tell me its viability given `CCc1c(C)nc2ncnn2c1NCCc1ccc(OC)c(OC)c1` as the entry.
Result: 64

Problem: Write down viability measured for item `C1=Nc2c(NCc3ccccc3)ncnc2Oc2ccccc21`
Result: 83

Problem: For the molecule `CCCCOC(=O)c1cccc(NC(=O)CC)c1` , give its reported viability.
Result: 113

Problem: Name the recorded viability of the item `CO[C@H]1C=CO[C@@]2(C)Oc3c(C)c(O)c4c(O)c(c(C=NN5CCN(C)CC5)c(O)c4c3C2=O)NC(=O)C(C)=CC=C[C@H](C)[C@H](O)[C@@H](C)[C@@H](O)[C@@H](C)[C@H](OC(C)=O)[C@@H]1C` in your answer.
Result: 90.5
